Every entry's value here was drawn from PubChem BioAssay.

test: mitochondrial membrane potential change in A549 cells, profiling panel, cell-based, JC-1 fluorescence, basal, 24 h, 100 nL (AID 1138); conditions: higher = more signal;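 also: A549 lung adenocarcinoma cells under basal conditions with no added stimulus; test concentration not given here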
Values of z-score greater than or equal to -0.8 map to True; values below map to False.

# compound, label_class
rows = [
    ("COc1ccc(C(=O)O[C@H]2CC[C@]3(C)C4=C(CCC3C2(C)C)[C@]2(C)CC[C@H]([C@H](C)CCCC(C)C)[C@@]2(C)CC4)cc1 (stereo partly drawn)", "True"),
    ("C=CCN1C(=O)[C@]2(O[C@H](CCO)[C@@H]([Si](C)(C)c3ccc(OC)cc3)[C@@H]2C)c2cc(N3C(=O)c4cccc5cccc3c45)ccc21", "False"),
    ("O=C1OCCC=C[C@H]2OC34C=CCN(CCN5CCOCC5)C(=O)[C@H]3N(CCCCCCO)C(=O)[C@@H]4C12 (stereo partly drawn)", "True"),
    ("[N-]=[N+]=NCc1ccccc1[C@H]1OC(c2ccc(OCCCO)cc2)=N[C@@]1(Cc1ccccc1)C(=O)NCc1ccccc1", "True"),
    ("O=C1O[C@H](c2ccccc2)[C@H](c2ccccc2)N2[C@H]1[C@@H](C(=O)O)[C@]1(C(=O)Nc3ccc(C#CC4=CCCCC4)cc31)[C@H]2c1ccccc1OCCO", "False"),
    ("O=C1OCC=C[C@H]2OC34C=CCN(c5ccc6ccccc6c5)C(=O)[C@H]3N(CCCCCCO)C(=O)[C@@H]4[C@@H]12 (stereo partly drawn)", "True"),
    ("CS(=O)(=O)CCOC(=O)C1=CC(CCCO)=CC(c2ccc(CN3CCCC3)cc2)N(Cc2cc3c(cc2Br)OCO3)C=C1C(=O)OCCS(C)(=O)=O (stereo not drawn)", "True"),
    ("COc1ccc(C(O)C2C=CC3C(=O)NC(=O)C3N2Nc2ccccn2)c2ccccc12 (stereo not drawn)", "False"),
    ("CC(=O)NCCCC[C@@H]1NC(=O)[C@@H]2C[C@H](C(=O)NCCCCN(C)C)[C@H](c3cccc(OCCO)c3)N2C1=O", "True"),
    ("C=CCC(OC(C)=O)[C@@H]1[C@@H](N(Cc2ccc(-c3cccc(C(F)(F)F)c3)o2)C(=O)Cc2ccc(F)cc2)c2cc(OCCCO)ccc2N1C(=O)Cc1ccc(OC)cc1 (stereo partly drawn)", "True"),
    ("O=C(c1ccccc1)N1Cc2ccccc2[C@@H]2OC(c3ccc(OCCCO)cc3)=N[C@]2(Cc2ccccc2)C1=O", "True"),
    ("COc1ccc(C(=O)Nc2cccc(CN3C(=O)[C@]4(O[C@H](CCO)[C@@H]([Si](C)(C)c5ccc(OC)cc5)[C@@H]4C)c4ccccc43)c2)cc1", "False"),
    ("N#Cc1ccc(NN2C(C(O)c3c(F)cccc3Cl)C=CC3C(=O)N(c4ccccc4)C(=O)C32)cc1 (stereo not drawn)", "True"),
    ("COC(=O)[C@@]1(Cc2ccccc2)[C@H]2c3cc(C(=O)N4CCCC4)n(Cc4cccc5ccccc45)c3C[C@H]2CN1C(=O)c1ccccc1", "True"),
    ("C=CCOC(=O)[C@@H]1[C@H]2C(=O)O[C@H](c3ccccc3)[C@H](c3ccccc3)N2[C@H](c2ccc(OCCOC(=O)[C@@H]3C[C@@H]4C(=O)N[C@@H](CCCC[N+](C)(C)C)C(=O)N4[C@@H]3c3cccc(OCCO)c3)cc2)[C@@]12C(=O)Nc1ccc(I)cc12", "False"),
    ("C=CCNC(=O)[C@@H]1[C@H]2C(=O)O[C@H](c3ccccc3)[C@H](c3ccccc3)N2[C@H](c2ccc(OCCO)cc2)[C@@]12C(=O)Nc1ccc(C#CCCO)cc12", "True"),
    ("COc1ccc(C(O)C2C=CC3C(=O)N(c4ccccc4)C(=O)C3N2Nc2ccccc2F)cc1OCc1ccccc1 (stereo not drawn)", "True"),
    ("[N-]=[N+]=Nc1ccccc1C[C@@]1(C(=O)NCCN2CCOCC2)N=C(c2ccc(OCCCO)cc2)O[C@@H]1c1ccccc1", "True"),
    ("CC(C)(C)OC(=O)CC[C@@]1(C(N)=O)N=C(c2ccc(OCCCO)cc2)O[C@@H]1c1ccccc1", "True"),
    ("CC(C)C[C@@H]1NC(=O)[C@H]2C[C@@H](C(=O)NCCCCCCN)[C@@H](c3ccc(O)cc3)N2C1=O", "False"),
    ("C[N+](C)(C)CCCC[C@@H]1NC(=O)[C@@H]2C[C@H](C(=O)NCCCCCN)[C@H](c3cccc(OCCO)c3)N2C1=O", "True"),
    ("COC(=O)[C@@]1(Cc2ccc(OC)cc2)[C@H]2c3cc(C(=O)N4CCCC4)n(Cc4ccsc4Br)c3C[C@H]2CN1C(=O)c1ccccc1", "True"),
    ("O=C1OCCC/C=C\\[C@H]2OC34C=CCN(c5ccc6ccccc6c5)C(=O)[C@H]3N(CCCCCCO)C(=O)[C@@H]4C12 (stereo partly drawn)", "True"),
    ("NC(=O)[C@@H]1[C@H]2C(=O)O[C@H](c3ccccc3)[C@H](c3ccccc3)N2[C@H](c2ccc(O)cc2)[C@@]12C(=O)Nc1ccc(C#CC3(O)CCCCCC3)cc12", "False"),
    ("COc1ccc([Si](C)(C)[C@@H]2[C@@H](CCO)O[C@]3(C(=O)N(Cc4ccc(N5C(=O)COc6ccccc65)cc4)c4ccccc43)[C@H]2C)cc1", "True"),
    ("CO[C@H]1O[C@H](CO)[C@@H](OC(=O)Nc2ccc(Br)cc2)[C@H](OC(=O)c2cc3ccccc3[nH]2)[C@H]1OC(=O)c1cc2ccccc2[nH]1", "False"),
]

====

biological target: Follistatin-related protein 3 (Homo sapiens); assay: FSTL3 binders on small-molecule microarrays, primary screen, biochemical, small-molecule microarray, 635 nm fluorescence (AID 1105); conditions: FSTL3 binding, higher = more signal;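 also: score merges emission near 667 nm and signal to noise per printed spot across three slides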
Label NOT MET if composite z-score falls below 0.9; label MET in every other case.

# compound, label_class
measured = [
    ("O=C(NCc1ccc(F)cc1)[C@H]1C[C@H]2C(=O)N[C@@H](Cc3ccccc3)C(=O)N2[C@H]1c1ccc(O)cc1", "NOT MET"),
    ("O=C1NC(=O)C2C1C=CC(C(O)c1ccccc1)N2Nc1ccc(Cl)cc1Cl (stereo unspecified)", "MET"),
    ("CCCCc1cn(C[C@H](Cc2ccccc2)NC(=O)N[C@H](CO)CCc2oc(C(C)=O)c(C(=O)OC)c2C(=O)OC)nn1", "MET"),
    ("C=CCC(OC(C)=O)[C@@H]1[C@@H](N(Cc2ccc(-c3cccc(C(F)(F)F)c3)o2)C(=O)c2ccc(-c3ccccc3)cc2)c2cc(OCCCO)ccc2N1C(=O)c1ccc(-c2ccccc2)cc1 (stereo partly specified)", "NOT MET"),
    ("CN1C(=O)C2C=CC(C(O)C3CCCCC3)N(Nc3ccc([N+](=O)[O-])cc3[N+](=O)[O-])C2C1=O (stereo unspecified)", "MET"),
]

====

test system: Neuregulin-1 EGF-like domain; assay: binders of neuregulin-1 EGF-like domain, primary screen, biochemical, small-molecule microarray, 635 nm fluorescence (AID 1081); details: small-molecule microarray binding, higher = more signal;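 also: binding of the protein to compounds printed on small-molecule microarray slides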
Tag: Yes if measured composite z-score is not below 1, No if it is.

# compound, tgt, label_class
rows = [
    ("NCCCCCNC(=O)[C@@H]1C[C@@H]2C(=O)N[C@@H](Cc3ccccc3)C(=O)N2[C@@H]1c1cccc(OCCO)c1", "Neuregulin-1 EGF-like domain", "Yes"),
    ("O=C1[C@H]2C=C(Br)[C@H](C[C@@H]2c2ccccc2)[C@@]12CO2", "Neuregulin-1 EGF-like domain", "No"),
    ("COc1ccc(C(=O)Nc2cccc(CN3C(=O)[C@]4(O[C@H](CCO)[C@@H]([Si](C)(C)c5ccc(OC)cc5)[C@@H]4C)c4ccccc43)c2)cc1", "Neuregulin-1 EGF-like domain", "Yes"),
    ("O=C1O[C@H](c2ccccc2)[C@H](c2ccccc2)N2[C@H]1[C@@H](C(=O)Nc1nc3ccccc3s1)[C@]1(C(=O)Nc3ccc(C#CC4(O)CCCCCC4)cc31)[C@H]2c1ccc(OCCO)cc1", "Neuregulin-1 EGF-like domain", "Yes"),
    ("Cc1ccc(S[C@]2(C(=O)NCCN3CCOCC3)CC(=O)N(Cc3ccccc3Cl)[C@@H]2c2ccc(CO)cc2)cc1", "Neuregulin-1 EGF-like domain", "Yes"),
    ("COCCOC(=O)N1C(=O)[C@@]2(c3cc(C#CCCO)ccc31)[C@H](c1ccc(OCCO)cc1)N1[C@H](c3ccccc3)[C@H](c3ccccc3)OC(=O)[C@H]1[C@@H]2C(=O)N1CCN(c2ncccn2)CC1", "Neuregulin-1 EGF-like domain", "Yes"),
    ("CCCCN1CC=CC23O[C@@H]4/C=C\\CCC(C)OC(=O)C4[C@H]2C(=O)N(CCCCCO)[C@@H]3C1=O (stereo partly drawn)", "Neuregulin-1 EGF-like domain", "No"),
    ("CC(C)(C)C(=O)N[C@@H](c1ccc(Cl)cc1)[C@]1(C)C[C@H]1C1CCCCC1", "Neuregulin-1 EGF-like domain", "Yes"),
    ("CCCC=C(CCC)[C@@H](NC(=O)Oc1ccc(F)cc1)c1ccc(C(=O)OC)cc1", "Neuregulin-1 EGF-like domain", "No"),
    ("CCOC(=O)[C@H]1CC=C2CC1C(=O)N1CCC[C@@H]1[C@@H]2O[Si](C)(C)C(C)(C)C (stereo partly drawn)", "Neuregulin-1 EGF-like domain", "No"),
    ("COc1cc2c(cc1OC)CN(C(=O)[C@@H]1[C@H]3C(=O)O[C@H](c4ccccc4)[C@H](c4ccccc4)N3[C@H](c3ccc(O)cc3)[C@@]13C(=O)Nc1ccc(C#CC4(O)CCCCCC4)cc13)CC2", "Neuregulin-1 EGF-like domain", "Yes"),
    ("C=CC[C@]12N=C(c3ccc(OCCCO)cc3)O[C@H]1c1ccccc1N(Cc1ccccc1)C2=O", "Neuregulin-1 EGF-like domain", "No"),
    ("COCCOC(=O)N1C(=O)[C@@]2(c3ccccc31)[C@H](c1ccccc1OCCO)N1[C@H](c3ccccc3)[C@H](c3ccccc3)OC(=O)[C@H]1[C@@H]2C(=O)Nc1nc2ccccc2s1", "Neuregulin-1 EGF-like domain", "Yes"),
    ("[N-]=[N+]=NCc1ccccc1[C@@H]1OC(c2ccc(OCCCO)cc2)=N[C@]1(Cc1ccccc1N=[N+]=[N-])C(=O)N1CCOCC1", "Neuregulin-1 EGF-like domain", "Yes"),
    ("CCCCCN1CC=CC23O[C@@H]4/C=C\\CCCOC(=O)C4[C@H]2C(=O)N(C(CO)C(C)C)[C@@H]3C1=O (stereo partly drawn)", "Neuregulin-1 EGF-like domain", "Yes"),
    ("O=C(c1ccccc1)N1Cc2ccccc2[C@@H]2OC(c3ccc(OCCCO)cc3)=N[C@]2(Cc2ccccc2)C1=O", "Neuregulin-1 EGF-like domain", "Yes"),
    ("CC1CC/C=C\\[C@H]2OC34C=CCN(C(C)(C)C)C(=O)[C@H]3N(CCCCCCO)C(=O)[C@@H]4C2C(=O)O1 (stereo partly drawn)", "Neuregulin-1 EGF-like domain", "Yes"),
    ("COc1ccc(C(O)C2C=CC3C(=O)NC(=O)C3N2Nc2ccccn2)c2ccccc12 (stereo not drawn)", "Neuregulin-1 EGF-like domain", "No"),
    ("CN(C)CCCNC(=O)[C@@]1(c2ccc([N+](=O)[O-])cc2)CC(=O)N(C2CCCCC2)[C@@H]1c1ccc(CO)cc1I", "Neuregulin-1 EGF-like domain", "Yes"),
    ("C=C(CCCC)/C(=C/C[C@@H](OC(C)=O)c1ccccc1OCCO)c1cnc2ccccc2c1", "Neuregulin-1 EGF-like domain", "No"),
    ("COC(=O)[C@@]1(Cc2ccc(OC)cc2)[C@H]2c3cc(C(=O)N4CCCC4)n(Cc4ccc(OC)c(OC)c4)c3C[C@H]2CN1C(=O)c1ccccc1", "Neuregulin-1 EGF-like domain", "Yes"),
    ("[N-]=[N+]=NCc1ccccc1C[C@]1(C(=O)N2CCOCC2)N=C(c2ccc(OCCCO)cc2)O[C@H]1c1ccccc1N=[N+]=[N-]", "Neuregulin-1 EGF-like domain", "Yes"),
    ("CCOC(=O)[C@H]1C/C=C/C[C@H](C(=O)OCC)C(=O)O[C@H]2[C@@H](OC)O[C@H](CO)[C@@H](OC(=O)Nc3cccc(F)c3)[C@@H]2OC1=O", "Neuregulin-1 EGF-like domain", "Yes"),
    ("COc1ccc(C#Cc2ccc3c(c2)[C@]2(C(=O)N3)[C@H](c3ccccc3OCCO)N3[C@H](c4ccccc4)[C@H](c4ccccc4)OC(=O)[C@H]3[C@@H]2C(=O)O)cc1", "Neuregulin-1 EGF-like domain", "Yes"),
    ("C[N+](C)(C)CCCCNC(=O)[C@H]1C[C@H]2C(=O)N[C@@H](Cc3ccccc3)C(=O)N2[C@H]1c1ccc(O)cc1", "Neuregulin-1 EGF-like domain", "Yes"),
    ("CC(CO)N1C(=O)[C@@H]2C3C(=O)OCCC/C=C\\[C@H]3OC23C=CCN(c2ccc4ccccc4c2)C(=O)[C@@H]13 (stereo partly drawn)", "Neuregulin-1 EGF-like domain", "Yes"),
    ("COc1ccc([Si](C)(C)[C@H]2[C@H](CC(=O)N3Cc4ccccc4C[C@H]3CO)O[C@@]3(C(=O)N(Cc4ccc(N5CCC5=O)cc4)c4ccccc43)[C@@H]2C)cc1", "Neuregulin-1 EGF-like domain", "Yes"),
]
